- system tested: T1, wild-type human PTH/PTHrP receptor (hP1R-WT) (human, UniProt Q03431 27-593)
- T1 sequence (looked up): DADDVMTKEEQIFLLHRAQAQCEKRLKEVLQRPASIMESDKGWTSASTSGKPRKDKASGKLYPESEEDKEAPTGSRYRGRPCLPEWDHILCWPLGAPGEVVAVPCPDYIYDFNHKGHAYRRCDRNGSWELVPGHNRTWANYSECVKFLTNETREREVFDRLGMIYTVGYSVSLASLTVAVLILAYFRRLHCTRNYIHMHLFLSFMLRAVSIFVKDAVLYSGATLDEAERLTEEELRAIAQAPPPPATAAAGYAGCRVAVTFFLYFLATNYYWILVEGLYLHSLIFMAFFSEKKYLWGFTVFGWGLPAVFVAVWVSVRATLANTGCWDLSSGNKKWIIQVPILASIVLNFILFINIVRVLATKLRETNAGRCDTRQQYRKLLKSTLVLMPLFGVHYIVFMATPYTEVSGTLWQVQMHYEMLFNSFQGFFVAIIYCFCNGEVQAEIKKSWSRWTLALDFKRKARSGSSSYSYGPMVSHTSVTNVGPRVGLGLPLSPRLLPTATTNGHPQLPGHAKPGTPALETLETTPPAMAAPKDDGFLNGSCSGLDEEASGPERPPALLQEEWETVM
- assay method text: cell-based or functional assay
Square brackets hold non-standard residues; d marks the D form. Ends that are not written are not given here. hArg = N=C(N)NCCCC[C@H](N)C(=O)O; Aib = CC(C)(N)C(=O)O
quantity name: cAMP EC50 (nM)
Only the number, expressed in nM, is required.

Qu. Param item = AVAEIQLMHQ[hArg]AK[Aib]-NH2 (N-terminus assumed; SMILES CC[C@H](C)[C@H](NC(=O)[C@H](CCC(=O)O)NC(=O)[C@H](C)NC(=O)[C@@H](NC(=O)[C@H](C)N)C(C)C)C(=O)N[C@@H](CCC(N)=O)C(=O)N[C@@H](CC(C)C)C(=O)N[C@@H](CCSC)C(=O)N[C@@H](Cc1c[nH]cn1)C(=O)N[C@@H](CCC(N)=O)C(=O)N[C@@H](CCCCNC(=N)N)C(=O)N[C@@H](C)C(=O)N[C@@H](CCCCN)C(=O)NC(C)(C)C(N)=O, Aib scan of [M]PTH(1-14); Aib replaces the Trp^14 of [M]; also called 635 Aib-14) [[Aib^14,M]PTH(1-14)] ; retrieve measured cAMP EC50.
Ans. 350
